# MEASUREMENT TARGET: human orexin-1 receptor (Homo sapiens)
# Sequence (O43613 1-425): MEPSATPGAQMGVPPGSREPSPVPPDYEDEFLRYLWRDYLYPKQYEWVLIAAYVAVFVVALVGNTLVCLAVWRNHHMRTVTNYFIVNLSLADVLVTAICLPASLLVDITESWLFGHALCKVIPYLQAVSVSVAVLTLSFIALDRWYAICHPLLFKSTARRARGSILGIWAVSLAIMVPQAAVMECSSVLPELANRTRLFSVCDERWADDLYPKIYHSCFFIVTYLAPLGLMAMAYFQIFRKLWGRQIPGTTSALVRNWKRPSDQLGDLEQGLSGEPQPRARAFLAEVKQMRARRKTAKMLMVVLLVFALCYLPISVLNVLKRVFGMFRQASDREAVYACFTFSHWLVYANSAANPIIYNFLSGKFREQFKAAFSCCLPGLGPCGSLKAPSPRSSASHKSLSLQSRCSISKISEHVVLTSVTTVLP
# PROCEDURE TEXT: Intracellular calcium measurements (FLIPR), orexin receptor antagonistic activity, OX1
# ASSAY CONTEXT: CHO cells expressing human orexin-1 receptor; 10 nM orexin-A as agonist
pIC50: −log10 of the molar value.
MEASURE: pIC50

A selection of reference data follows.
MOLECULE	pIC50
CNC(=O)[C@@H](c1ccccc1)N1CCn2c(Cl)nc(Cl)c2C1CCc1ccc(C(F)(F)F)cc1 (mixture of isomers)	6.55
CCc1nc(Cl)c2n1CCN([C@@H](C(=O)NC)c1ccccc1)[C@H]2COc1cccc(C(F)(F)F)c1	6.39

(I) CNC(=O)[C@@H](c1ccccc1)N1CCn2c(C)nc(C3CC3)c2[C@@H]1CCc1ccc(C(F)(F)F)cc1
(II) CCc1nc(OC)c2n1CCN([C@@H](C(=O)NC)c1ccccc1)[C@H]2CCc1ccc(C)c(C)c1
Q: Please compare: I and II . Report which one has the smaller pIC50 value. // return label of chosen record
Ans: I

(a) CNC(=O)[C@@H](c1ccccc1)N1CCn2c(C)nc(C#N)c2[C@@H]1CCc1ccc(C(F)(F)F)c(F)c1
(b) CCc1nc(Cl)c2n1CCN([C@@H](C(=O)NC)c1ccccc1)[C@H]2CCc1cc(F)c(OC)c(F)c1
Q: Between the two listed entries a and b , which has its pIC50 at the higher number? // return label of chosen record
Ans: b
(b: 7.77, a: 6.27)

====

# MEASUREMENT TARGET: human orexin-1 receptor (Homo sapiens)
# PROCEDURE TEXT: Intracellular calcium measurements (FLIPR), orexin receptor antagonistic activity, OX1
# ASSAY CONTEXT: CHO cells expressing human orexin-1 receptor; 10 nM orexin-A as agonist
MEASURE: IC50 (nM)

A selection of reference data follows.
COMPOUND	IC50, nM
CCc1nc(C(F)(F)F)c2n1CCN([C@@H](C(=O)NC)c1ccccc1)[C@H]2CCc1ccc(C(F)(F)F)cc1 [15 (8S; 2′R)]	807
CNC(=O)[C@@H](c1ccccc1)N1CCn2c(C)nc(Cl)c2[C@H]1CCc1cc(F)c(C)c(F)c1 [10 (8R; 2′R)]	72
CNC(=O)[C@@H](c1ccccc1)N1CCn2c(C)nc(Cl)c2C1CCc1ccc(C)c(C)c1 (mixture of isomers) [11 (8S; 2′R)/(8R; 2′R)]	36

(A) C=Cc1nc(CC)n2c1[C@H](CCc1ccc(C(F)(F)F)cc1)N([C@@H](C(=O)NC)c1ccccc1)CC2 [28 (8S; 2′R)]
(B) CNC(=O)[C@@H](c1ccccc1)N1CCn2c(COC)nc(Cl)c2C1CCc1ccc(C(F)(F)F)cc1 (mixture of isomers) [16 (8S; 2′R)/(8R; 2′R)]
Q: Between the two listed entries A and B , which has its IC50 at the higher number? // return label of chosen record
Ans: B

====

# MEASUREMENT TARGET: UniProt O43614
# PROCEDURE TEXT: Intracellular calcium measurements (FLIPR), orexin receptor antagonistic activity, OX2
# ASSAY CONTEXT: CHO cells expressing human orexin-2 receptor; 10 nM orexin-A as agonist
pIC50: −log10 of the molar value.
MEASURE: pIC50

MOLECULE	REPORTED VALUE
C=Cc1nc(CC)n2c1[C@H](CCc1ccc(C(F)(F)F)cc1)N([C@@H](C(=O)NC)c1ccccc1)CC2 [28 (8S; 2′R)]	7.54

(A) CNC(=O)[C@@H](c1ccccc1)N1CCn2c(C)nc(C3CC3)c2[C@@H]1CCc1ccc(C(F)(F)F)cc1 [46 (8S; 2′R)]
(B) CNC(=O)[C@@H](c1ccccc1)N1CCn2c(C)nc(Cl)c2C1CCc1ccc(C)c(C)c1 (mixture of isomers) [11 (8S; 2′R)/(8R; 2′R)]
Q: Between the two listed entries A and B , which has its pIC50 at the higher number? // return label of chosen record
Ans: B
(B: 7.96, A: 7.68)

====

# MEASUREMENT TARGET: human orexin-2 receptor (Homo sapiens, UniProt O43614)
# Sequence (O43614 whole entry): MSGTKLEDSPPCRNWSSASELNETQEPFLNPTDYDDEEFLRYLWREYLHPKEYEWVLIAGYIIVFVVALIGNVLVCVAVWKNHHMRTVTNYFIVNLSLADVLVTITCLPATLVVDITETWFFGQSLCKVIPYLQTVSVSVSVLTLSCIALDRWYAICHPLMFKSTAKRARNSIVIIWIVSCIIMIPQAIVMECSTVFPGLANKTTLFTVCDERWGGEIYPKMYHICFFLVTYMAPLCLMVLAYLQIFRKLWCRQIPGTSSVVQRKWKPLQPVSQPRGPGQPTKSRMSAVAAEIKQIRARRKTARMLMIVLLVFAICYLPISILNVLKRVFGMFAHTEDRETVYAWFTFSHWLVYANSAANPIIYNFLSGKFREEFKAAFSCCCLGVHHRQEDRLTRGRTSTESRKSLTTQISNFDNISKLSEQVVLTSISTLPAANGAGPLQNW
# PROCEDURE TEXT: Intracellular calcium measurements (FLIPR), orexin receptor antagonistic activity, OX2
# ASSAY CONTEXT: CHO cells expressing human orexin-2 receptor; 10 nM orexin-A as agonist
pIC50: −log10 of the molar value.
MEASURE: pIC50

A selection of reference data follows.
COMPOUND	MEASURE	REPORTED VALUE
CNC(=O)[C@@H](c1ccccc1)N1CCn2c(COC)nc(Cl)c2C1CCc1ccc(C(F)(F)F)cc1 (mixture of isomers)	pIC50	7.48
CCc1nc(Cl)c2n1CCN([C@@H](C(=O)NC)c1ccccc1)[C@H]2COc1cccc(C(F)(F)F)c1	pIC50	8.70
CNC(=O)[C@@H](c1ccccc1)N1CCn2c(C)nc(Cl)c2[C@H]1CCc1cc(F)c(C)c(F)c1	pIC50	7.85

(A) CNC(=O)[C@@H](c1ccccc1)N1CCn2c(Cl)nc(Cl)c2C1CCc1ccc(C(F)(F)F)cc1 (mixture of isomers)
(B) CNC(=O)[C@@H](c1ccccc1)N1CCn2c(C)nc(C)c2C1CCc1ccc(OC)cc1OC (mixture of isomers)
(C) CCc1nc(OC)c2n1CCN([C@@H](C(=O)NC)c1ccccc1)[C@H]2CCc1ccc(C)c(C)c1
Q: Put the entries in order of pIC50, starting with the largest number. As an answer, provide the labels arranged in the order called for.
Ans: C, A, B
(C: 8.40, A: 7.96, B: 6.94)

====

# MEASUREMENT TARGET: human orexin-2 receptor (Homo sapiens, UniProt O43614)
# PROCEDURE TEXT: Intracellular calcium measurements (FLIPR), orexin receptor antagonistic activity, OX2
# ASSAY CONTEXT: CHO cells expressing human orexin-2 receptor; 10 nM orexin-A as agonist
# Protocol: Intracellular Calcium Measurements: […] Within the Fluorescent Imaging Plate Reader (FLIPR, Molecular Devices), antagonists are added to the plate in a volume of 50 μl, incubated for 20 min and finally 100 μl of agonist is added. Fluorescence is measured for each well at 1 second intervals, and the height of each fluorescence peak is compared to the height of the fluorescence peak induced by 10 nM orexin-A with buffer in place of antagonist. […]
pIC50: −log10 of the molar value.
MEASURE: pIC50

ENTRY SMILES	MEASUREMENT TARGET	pIC50
CCc1nc(C(F)(F)F)c2n1CCN([C@@H](C(=O)NC)c1ccccc1)[C@H]2CCc1ccc(C(F)(F)F)cc1	human orexin-2 receptor (Homo sapiens, UniProt O43614)	7.82
CCc1nc(Cl)c2n1CCN([C@@H](C(=O)NC)c1ccccc1)[C@H]2CCc1cc(F)c(OC)c(F)c1	human orexin-2 receptor (Homo sapiens, UniProt O43614)	7.85
CNC(=O)[C@@H](c1ccccc1)N1CCn2c(C)nc(C#N)c2[C@@H]1CCc1ccc(C(F)(F)F)c(F)c1	human orexin-2 receptor (Homo sapiens, UniProt O43614)	7.85

Reference source: patent US8188082B2
